# protocol: Antiglycation activity using bovine serum albumin incubated at 37 degC for 7 days by spectrofluorimetry
# Type: physicochemical
Starred links: 1 amine or outer side, 2 acyl side, 3 side chain; linkers in the order of their positions; H or OH if unused. Residues, ends and D or L forms follow the SMILES beside them. *: point of attachment. Thiocarbamoyl(N-2-FPh) = Fc1ccccc1NC(=S)*; NH(4-MeO-phenyl) = COc1ccc(N*)cc1; X1 = c1ccc2c(N3CCN(*)CC3)nsc2c1; NH(3-MeOPh) = COc1cccc(N*)c1; X5 = COc1ccccc1NC(=S)*; Boc = CC(C)(C)OC(=O)*; CO = O=C([*:1])[*:2]
assay.readout: log10(IC50) (log10 of the value in µM)

>  <molecule>
CC(C)[C@H](NC(=O)CNC(=S)Nc1ccccc1F)C(=O)NCC(=O)N[C@H](C(=O)N1CCC[C@H]1C(=O)N1CCN(c2nsc3ccccc23)CC1)C(C)C ({Thiocarbamoyl(N-2-FPh)}-GVGVP-X1)

>  <assay.readout>
log10(IC50)

>  <numeric.value>
1.70

$$$$
>  <molecule>
COc1ccc(NC(=O)NCC(=O)N[C@@H](Cc2ccccc2)C(=O)NCC(=O)N[C@H](C(=O)N2CCC[C@H]2C(=O)N2CCN(c3nsc4ccccc34)CC2)C(C)C)cc1 ({NH(4-MeO-phenyl)-CO}-GFGVP-X1)

>  <assay.readout>
log10(IC50)

>  <numeric.value>
1.28

$$$$
>  <molecule>
COc1ccccc1NC(=S)NCC(=O)N[C@H](C(=O)NCC(=O)N[C@H](C(=O)N1CCC[C@H]1C(=O)N1CCN(c2nsc3ccccc23)CC1)C(C)C)C(C)C (X5-GVGVP-X1)

>  <assay.readout>
log10(IC50)

>  <numeric.value>
1.30

$$$$
>  <molecule>
COc1cccc(NC(=O)NCC(=O)N[C@H](C(=O)NCC(=O)N[C@H](C(=O)N2CCC[C@H]2C(=O)N2CCN(c3nsc4ccccc34)CC2)C(C)C)C(C)C)c1 ({NH(3-MeOPh)-CO}-GVGVP-X1)

>  <assay.readout>
log10(IC50)

>  <numeric.value>
1.40

$$$$
>  <molecule>
CC(C)[C@H](NC(=O)CNC(=O)OC(C)(C)C)C(=O)NCC(=O)N[C@H](C(=O)N1CCC[C@H]1C(=O)N1CCN(c2nsc3ccccc23)CC1)C(C)C (Boc-GVGVP-X1)

>  <assay.readout>
log10(IC50)

>  <numeric.value>
2.40

$$$$
